Hi there, I'd appreciate the recorded melting point for every entry that follows.

Sample records with melting point:
COc1cccc(-c2ccc(-c3nnc4n3CCSC(C)(CO)C4)c(Cl)c2)c1 (stereo not drawn)	181 to 184 °C
CC1(CO)Cc2nnc(-c3ccc(N4CCCCC4)cc3Cl)n2CCS1 (stereo not drawn)	195 to 198 °C

// next entry
Problem: Specify measured melting point for CC1(CO)Cc2nnc(-c3ccc(-c4ccc(F)cc4)cc3Cl)n2CCS1 (single isomer, unassigned; (-)) [Example 56] .
Result: 212 to 215 °C

Source of measurements: patent US20100004221A1
